In this section, each of the binders is paired with its reported Bmax (MFI).
target: T1, human glypican-3 (GPC3) (human, UniProt P51654 25-554); assay: flow cytometry on JHH-7 cells; antibody in mouse plasma, day 0
T1 construct: Endogenous on JHH-7, JHH-5, HepG2 and NCI-H446 tumour cells, or transiently expressed on CHO-S cells from a pTT5 plasmid; also called hGPC3; huGPC3

{"BINDER": "H18L6_LC_G34Q mAb, v40208 (antibody, human IgG1, kappa, V domains shown, Full-size IgG1/kappa) VH: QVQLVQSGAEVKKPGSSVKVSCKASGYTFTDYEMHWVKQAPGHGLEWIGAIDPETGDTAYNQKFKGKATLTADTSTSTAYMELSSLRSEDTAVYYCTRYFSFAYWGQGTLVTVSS VL: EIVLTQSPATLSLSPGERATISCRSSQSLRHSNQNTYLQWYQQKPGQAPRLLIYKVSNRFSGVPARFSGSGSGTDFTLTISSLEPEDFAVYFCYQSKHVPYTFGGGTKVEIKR", "UNIT INFO": "MFI", "Bmax (MFI)": 8910}
{"BINDER": "H18L6_LC_G34D mAb, v40203 (antibody, human IgG1, kappa, V domains shown) VH: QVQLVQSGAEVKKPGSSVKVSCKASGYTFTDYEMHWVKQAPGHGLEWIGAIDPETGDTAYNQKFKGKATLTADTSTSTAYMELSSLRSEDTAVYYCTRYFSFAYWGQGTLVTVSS VL: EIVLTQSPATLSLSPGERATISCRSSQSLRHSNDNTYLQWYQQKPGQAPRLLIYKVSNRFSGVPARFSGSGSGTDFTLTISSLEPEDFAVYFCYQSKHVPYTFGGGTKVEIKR", "UNIT INFO": "MFI", "Bmax (MFI)": 9140}
